MEASUREMENT_TARGET: TLR1/TLR2 (Homo sapiens, UniProt O60603+Q15399)
Sequence (Q15399 25-786): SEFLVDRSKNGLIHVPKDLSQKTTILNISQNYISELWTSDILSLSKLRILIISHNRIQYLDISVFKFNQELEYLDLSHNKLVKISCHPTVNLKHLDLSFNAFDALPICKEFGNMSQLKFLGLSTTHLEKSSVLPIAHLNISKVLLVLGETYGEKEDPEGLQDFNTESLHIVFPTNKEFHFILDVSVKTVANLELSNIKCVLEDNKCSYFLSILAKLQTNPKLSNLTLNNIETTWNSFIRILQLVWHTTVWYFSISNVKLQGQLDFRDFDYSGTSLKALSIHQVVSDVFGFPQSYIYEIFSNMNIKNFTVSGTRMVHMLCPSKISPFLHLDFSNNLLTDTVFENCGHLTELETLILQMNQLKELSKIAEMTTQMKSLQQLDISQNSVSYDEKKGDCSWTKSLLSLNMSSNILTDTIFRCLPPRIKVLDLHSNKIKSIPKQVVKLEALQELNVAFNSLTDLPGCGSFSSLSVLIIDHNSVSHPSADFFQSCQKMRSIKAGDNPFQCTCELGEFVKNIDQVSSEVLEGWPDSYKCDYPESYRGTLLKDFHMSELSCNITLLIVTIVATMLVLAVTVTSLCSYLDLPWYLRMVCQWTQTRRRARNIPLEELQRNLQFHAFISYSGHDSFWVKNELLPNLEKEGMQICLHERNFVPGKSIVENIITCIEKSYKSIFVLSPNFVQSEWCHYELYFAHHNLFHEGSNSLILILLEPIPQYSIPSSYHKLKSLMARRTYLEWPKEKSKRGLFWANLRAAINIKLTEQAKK
Sequence (O60603 21-784): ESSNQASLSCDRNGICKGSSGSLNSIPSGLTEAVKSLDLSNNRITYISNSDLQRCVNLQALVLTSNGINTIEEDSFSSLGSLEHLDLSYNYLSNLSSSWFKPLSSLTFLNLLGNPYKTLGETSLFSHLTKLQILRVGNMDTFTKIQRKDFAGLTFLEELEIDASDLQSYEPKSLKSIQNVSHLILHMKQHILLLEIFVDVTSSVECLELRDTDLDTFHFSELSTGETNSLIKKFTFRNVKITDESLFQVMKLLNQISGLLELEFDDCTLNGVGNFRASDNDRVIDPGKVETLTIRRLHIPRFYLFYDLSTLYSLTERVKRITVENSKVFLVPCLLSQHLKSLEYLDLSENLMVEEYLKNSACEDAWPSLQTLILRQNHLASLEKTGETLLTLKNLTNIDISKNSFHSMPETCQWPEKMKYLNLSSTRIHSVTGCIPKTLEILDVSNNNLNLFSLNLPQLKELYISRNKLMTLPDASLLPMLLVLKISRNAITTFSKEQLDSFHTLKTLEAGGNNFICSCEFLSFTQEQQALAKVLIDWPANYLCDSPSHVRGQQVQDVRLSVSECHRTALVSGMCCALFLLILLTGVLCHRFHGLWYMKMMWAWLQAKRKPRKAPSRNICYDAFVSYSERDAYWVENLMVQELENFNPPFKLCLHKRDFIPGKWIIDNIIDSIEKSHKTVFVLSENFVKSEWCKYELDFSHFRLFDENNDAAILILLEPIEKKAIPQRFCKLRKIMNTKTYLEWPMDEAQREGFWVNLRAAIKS
ASSAY_NAME: TNF-α release from PMA-differentiated human THP-1 cells (ELISA)
CONDITIONS: read-out: EC50 (nM) (THP-1): EC50 TNF-α release from human THP-1 cells; Table 3
PROPERTY_LABEL: EC50 (nM)
Quick reminder: number only, in nM, skip the unit.

For reference, reported EC50 for `CC(C)(C)OC(=O)COCCCCCCCCCCCCNC(=O)[C@@H]1CN(C(=O)c2ccc(C(=O)N3C[C@@H](C(=O)N[C@H]4C[C@@H]4c4ccccc4)[C@H](C(=O)N[C@H]4C[C@@H]4c4ccccc4)C3)cc2)C[C@H]1C(=O)N[C@H]1C[C@@H]1c1ccccc1` stands at 15

---

MEASUREMENT_TARGET: TLR1/TLR2 (Homo sapiens, UniProt O60603+Q15399)
ASSAY_NAME: TNF-α release from PMA-differentiated human THP-1 cells (ELISA);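 further: cells exposed to graded compound concentrations for 4 h, TNF-α quantified in supernatant, LPS as positive and DMSO as negative control, values are duplicate means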
CONDITIONS: THP-1, 4 h, read-out: Efficacy (magnitude) of response versus diprovocim-1 (100%), THP-1
Task for the reader: assign each of the following compounds its reported Emax.
Quick reminder: number only, in %, skip the unit.

Tested system TLR1/TLR2 (Homo sapiens, UniProt O60603+Q15399); Emax recorded for O=C(CNC(=O)C(=O)O)OCCCCCCCCCCCCNC(=O)[C@@H]1CN(C(=O)c2ccc(C(=O)N3C[C@@H](C(=O)N[C@H]4C[C@@H]4c4ccccc4)[C@H](C(=O)N[C@H]4C[C@@H]4c4ccccc4)C3)cc2)C[C@H]1C(=O)N[C@H]1C[C@@H]1c1ccccc1 [Compound 84] was 120

Tested system TLR1/TLR2 (Homo sapiens, UniProt O60603+Q15399); Emax recorded for C[C@H](NC(=O)OC(C)(C)C)C(=O)OCCCCCCCCCCCCNC(=O)[C@@H]1CN(C(=O)c2ccc(C(=O)N3C[C@@H](C(=O)N[C@H]4C[C@@H]4c4ccccc4)[C@H](C(=O)N[C@H]4C[C@@H]4c4ccccc4)C3)cc2)C[C@H]1C(=O)N[C@H]1C[C@@H]1c1ccccc1 [Compound 57] was 80

Tested system TLR1/TLR2 (Homo sapiens, UniProt O60603+Q15399); Emax recorded for NCC(=O)OCCCCCCCCCCCCNC(=O)[C@@H]1CN(C(=O)c2ccc(C(=O)N3C[C@@H](C(=O)N[C@H]4C[C@@H]4c4ccccc4)[C@H](C(=O)N[C@H]4C[C@@H]4c4ccccc4)C3)cc2)C[C@H]1C(=O)N[C@H]1C[C@@H]1c1ccccc1 [Compound 43] was 100

Tested system TLR1/TLR2 (Homo sapiens, UniProt O60603+Q15399); Emax recorded for O=C(COCc1ccccc1)OCCCCCCCCCCCCNC(=O)[C@@H]1CN(C(=O)c2ccc(C(=O)N3C[C@@H](C(=O)N[C@H]4C[C@@H]4c4ccccc4)[C@H](C(=O)N[C@H]4C[C@@H]4c4ccccc4)C3)cc2)C[C@H]1C(=O)N[C@H]1C[C@@H]1c1ccccc1 [Compound 46] was 130

Tested system TLR1/TLR2 (Homo sapiens, UniProt O60603+Q15399); Emax recorded for CC(=O)OCCCCCCCCCCCCNC(=O)[C@@H]1CN(C(=O)c2ccc(C(=O)N3C[C@@H](C(=O)N[C@H]4C[C@@H]4c4ccccc4)[C@H](C(=O)N[C@H]4C[C@@H]4c4ccccc4)C3)cc2)C[C@H]1C(=O)N[C@H]1C[C@@H]1c1ccccc1 [Compound 32] was 130

Tested system TLR1/TLR2 (Homo sapiens, UniProt O60603+Q15399); Emax recorded for O=C(O)CCCCCCCCCCCNC(=O)[C@@H]1CN(C(=O)c2ccc(C(=O)N3C[C@@H](C(=O)N[C@H]4C[C@@H]4c4ccccc4)[C@H](C(=O)N[C@H]4C[C@@H]4c4ccccc4)C3)cc2)C[C@H]1C(=O)N[C@H]1C[C@@H]1c1ccccc1 [Compound 11] was 100

Tested system TLR1/TLR2 (Homo sapiens, UniProt O60603+Q15399); Emax recorded for CC(C)(C)OC(=O)C(=O)NCC(=O)OCCCCCCCCCCCCNC(=O)[C@@H]1CN(C(=O)c2ccc(C(=O)N3C[C@@H](C(=O)N[C@H]4C[C@@H]4c4ccccc4)[C@H](C(=O)N[C@H]4C[C@@H]4c4ccccc4)C3)cc2)C[C@H]1C(=O)N[C@H]1C[C@@H]1c1ccccc1 [Compound 83] was 110
